B1: TPR 5TU (parent)
chain: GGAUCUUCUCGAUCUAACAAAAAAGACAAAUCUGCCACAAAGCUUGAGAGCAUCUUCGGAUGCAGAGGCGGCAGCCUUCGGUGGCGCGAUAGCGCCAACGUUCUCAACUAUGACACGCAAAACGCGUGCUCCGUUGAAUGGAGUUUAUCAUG

# Variants of: B1
# Test Summary: polymerase ribozyme fitness, log enrichment relative to wild type (log ratio); higher = more active; in vitro selection for triplet polymerase activity
Fewer inactive variants are shown than the library holds.
Label yes when polymerase ribozyme fitness (log ratio) is at or above -3; anything below gets no.

{"columns": ["Sequence Change", "Cat"],
 "data": [
  ["A41C A52G G62C C95G C131A A142U C149A", "no"],
  ["A21C A23G A37C C95G", "no"],
  ["A41C C63G A64C U111C", "no"],
  ["A29C A40G C123A U127A", "no"]
]}

Enquiry: State whether the measured polymerase ribozyme fitness (log ratio) reaches -3, counting equality as reaching it, for A20C A26C A30C U44G G50A A66C
Return: no

Enquiry: Would you say A3U U4G U55A A119C shows polymerase ribozyme fitness (log ratio) at minimum -3?
Return: yes

Enquiry: Hi, just wondering whether C18U A20U G59A G94A C116G A142G A150G shows polymerase ribozyme fitness (log ratio) of -3 or higher.
Return: no

Enquiry: # check: polymerase ribozyme fitness (log ratio) of G71C A91U G136C is greater than or equal to -3
Return: no

Enquiry: // inclusive: polymerase ribozyme fitness (log ratio) at least -3? input: G74C G92U
Return: no

Enquiry: Check if polymerase ribozyme fitness (log ratio) >= -3 (inclusive). Item: C38U A110U
Return: no

Enquiry: In plain terms: is recorded polymerase ribozyme fitness (log ratio) at least -3 for G25U A39U U55A U102C U109G C114U A120U A122G U144G ?
Return: no

Just for reference, the RNAGym collection of RNA variant scans (doi:10.1073/pnas.2313332121) is where these values come from.
